compounds and their reported growth
Tested on: SK-MEL-2 melanoma
Experiment: NCI-60 one-dose screen, 48 h (100 = growth as untreated, 0 = no growth, -100 = all killed)
Conditions: 10 µM unless noted
The panel holds about 83,000 compounds, 20% with a hit somewhere; the sample as a whole holds those more often.
Reply with just the number (in %).

Sample smiles	Assayed target	Result units	growth
Cc1nn(-c2ccccc2)c2nc(N)c(C3=NCCO3)nc12	SK-MEL-2 melanoma	%	111
COc1ccc2c(c1)CC[C@@H]1[C@@H]2CC[C@]2(C)[C@@H](O)C(=O)C[C@@H]12	SK-MEL-2 melanoma	%	107
COc1cccc(/C=N\NC(=O)c2ccncc2)c1O	SK-MEL-2 melanoma	%	43.8
O=C1C=CC(=O)N1c1ccccc1N1C(=O)C=CC1=O	SK-MEL-2 melanoma	%	98.6

Kindly review the next compound as well.
Can you share its growth? I mean this compound: Nc1ccccc1C#Cc1ccccc1C#Cc1ccc(OCCCCCCOc2ccc(C#Cc3ccccc3C#Cc3ccccc3N)cc2)cc1
103
